Some compounds, each annotated with its measured melting point.

[
  {
    "Compound": "C=CC(=O)NCc1cc([N+](=O)[O-])ccc1C",
    "melting point": "155 to 158 °C"
  },
  {
    "Compound": "O=c1cc2c(nn1-c1ccc(Cl)cc1)-c1cccc(Cl)c1S(=O)CC2 (stereo not given)",
    "melting point": "217 to 219 °C"
  },
  {
    "Compound": "CN(c1ccc2c(c1)S(=O)(=O)C=C(c1c(O)c3cc(F)ccc3n(CCC3CC3)c1=O)N2)S(C)(=O)=O",
    "melting point": "208 to 212 °C"
  },
  {
    "Compound": "CCOc1ccc(/C=C/c2nc3c(c(=O)n(CC)c(=O)n3CC)n2C)cc1",
    "melting point": "185 to 186 °C"
  },
  {
    "Compound": "FC(F)(F)c1cccc2c(-c3ccccc3)c(-c3ccccc3)cnc12",
    "melting point": "181 to 183 °C"
  },
  {
    "Compound": "Nc1ccc(CS(=O)(=O)NCc2ccccc2)cc1",
    "melting point": "117 to 118 °C"
  },
  {
    "Compound": "COc1ccc2oc3ccc([N+](=O)[O-])cc3c2c1C(=O)Nc1ccncc1",
    "melting point": "222 °C"
  },
  {
    "Compound": "[N-]=[N+]=NCc1ccc(C(=O)c2ccc(Cl)cc2)c(Cl)c1",
    "melting point": "33 to 33.5 °C"
  },
  {
    "Compound": "COc1cccc(C(=O)O)c1N",
    "melting point": "172 to 175 °C"
  },
  {
    "Compound": "CNC(=O)Cc1c(-c2ccc(C)cc2)nn2cccnc12",
    "melting point": "207 to 208 °C"
  }
]
